target: Tyrosine-protein phosphatase non-receptor type 7 (Homo sapiens) (UniProt P35236); assay: HePTP tyrosine phosphatase activity blockers – biochemical, absorbance, leukemia target, primary screen (AID 521); details: recombinant HePTP phosphatase activity, OD absorbance; at 20 µM; active compounds read high;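 note: plate controls were vehicle for no effect and reference inhibitor for full effect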
Sequence (P35236 whole entry, looked up): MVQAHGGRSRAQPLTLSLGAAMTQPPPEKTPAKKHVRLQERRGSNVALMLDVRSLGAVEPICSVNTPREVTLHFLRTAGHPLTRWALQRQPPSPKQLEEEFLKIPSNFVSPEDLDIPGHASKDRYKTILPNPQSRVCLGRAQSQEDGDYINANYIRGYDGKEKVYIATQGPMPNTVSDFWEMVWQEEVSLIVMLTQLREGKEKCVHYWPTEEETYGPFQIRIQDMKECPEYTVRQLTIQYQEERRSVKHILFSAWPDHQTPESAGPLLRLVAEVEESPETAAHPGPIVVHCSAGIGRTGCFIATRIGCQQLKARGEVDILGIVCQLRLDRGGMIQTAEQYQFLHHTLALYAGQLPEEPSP
Hit rate of the full screen: of about 110,000 compounds, about 730 (0.66%) were called active. The entries come from a sample that favours actives as a whole.
Parameter inhibition: see the listing below.

Molecule	inhibition, %
CC(C)(C)CC(C)(C)NC(=O)CSc1nc2ccccc2s1	5.4
CCOC(=O)c1c(NC(=O)C2CC2c2ccccc2)sc2c1CCC2 (stereo unspecified)	77.8
OCCNCC(O)Cn1c2ccc(I)cc2c2cc(I)ccc21 (stereo unspecified)	-15.3
Cc1cccc(NC(=O)/C(C#N)=C/c2ccc(-c3ccccc3[N+](=O)[O-])o2)c1	2.3
COc1ccc(C(=O)ON=C2c3ccccc3-c3ccccc32)cc1OC	62.3
O=C(c1ccc2c(c1)OCO2)N1CCOCC1	104
Cc1ccc(/C=C/C(=O)Nc2nc3ccc(S(C)(=O)=O)cc3s2)cc1	-6.1
N/C(=C\C(=O)/C=C\c1ccccc1)C(Cl)(Cl)Cl	-0.8
COc1cc(/C=C2\C(=O)NC(=S)N(c3cccc(Br)c3)C2=O)c([N+](=O)[O-])cc1OC	102
O=C1NC(c2ccc(Br)cc2)=N/C1=C/c1ccccc1	-7.8
COc1ccc(/C=C2\C(=O)NC(=S)N(c3ccc(Br)cc3)C2=O)cc1	8.6
Cc1ccc(N(CC(O)CN2CCCC2)S(=O)(=O)c2ccccc2)cc1 (stereo unspecified)	-3.8
O=C1NN(c2ccccc2)C(=O)/C1=C/c1cccc(F)c1	7.6
CCC(=O)Nc1sc(C(=O)N2CCCCC2)c(C)c1C#N	7.4
COC(=O)c1sc(NC(=O)C2CCCCC2)c(C#N)c1C	103
O=C(CCCN1C(=O)/C(=C/c2ccccc2)SC1=S)Nc1ccccc1C(=O)O	10.4
O=C1Nc2ccccc2/C1=N\N=C\c1c(F)cccc1Cl	14
COc1cc2c(cc1C)/C(=N/OC(=O)c1ccc(OC)c([N+](=O)[O-])c1)CCC2	-10.5
CCOC(=O)COc1ccc(/C=C2/NC(=S)NC2=O)cc1OC	4.1
COc1ccc([N+](=O)[O-])cc1-c1ccc(/C=C(\C#N)c2nc3ccc(C)cc3[nH]2)o1	103
COc1ccc(C=Nc2ccc(Sc3ccc([N+](=O)[O-])cc3)cc2)cc1OC	-1.2
Cc1[nH]n(-c2ccccc2)c(=O)c1C(c1ccc(C(F)(F)F)cc1)c1c(C)[nH]n(-c2ccccc2)c1=O	104
Cc1ccc(-c2csc(NC(=O)c3ccc(Cl)cc3)n2)cc1	7
Cc1cccc(N(CC(O)CN(C)C)S(=O)(=O)c2ccccc2)c1 (stereo unspecified)	-7.9
O=C(O)C1C2C=CC(O2)C1C(=O)Nc1nccs1 (stereo unspecified)	104
CCOC(=O)C1=C(C)N=c2s/c(=C\c3ccc4c(c3)OCO4)c(=O)n2C1c1ccc(OC)c(Br)c1 (stereo unspecified)	3.8
